System: human SMAD7 mRNA
test details: Dose-dependent inhibition of human SMAD7 mRNA expression in Hep3B cells (Example 3, Study 1 and 2)
Assay type: cell-based
assay setup: 740 nM, electroporation, approximately 16 hours, Study 2, relative to untreated control cells
Strand notation (5' to 3'): a small letter for the sugar, then the base; units joined by * are phosphorothioate-linked, units joined directly phosphodiester-linked; [ ] holds rarer units or linkages, { } end groups; capitals alone tell only the bases. k = constrained ethyl (cEt); [5mC] = 5-methylcytosine; d = 2'-deoxy (DNA)
readout kind: % inhibition of SMAD7 mRNA expression (%)
I only need the number, in %, no unit after it.

INPUT: Which % inhibition of SMAD7 mRNA expression is reported for this substance? 799312 (antisense k[5mC]*kA*kT*d[5mC]*dT*dT*dT*dA*dA*dG*d[5mC]*dA*d[5mC]*kG*k[5mC]*kT) [compound 799312]
OUTPUT: 23

INPUT: Which % inhibition of SMAD7 mRNA expression is reported for this substance? 799743 (antisense k[5mC]*kT*kG*dG*dA*dG*dT*dT*dA*dT*dT*d[5mC]*dT*k[5mC]*kA*kA) [compound 799743]
OUTPUT: 0

INPUT: Which % inhibition of SMAD7 mRNA expression is reported for this substance? 799709 (antisense kT*k[5mC]*kA*dA*dA*d[5mC]*dT*dT*dG*dT*dG*dG*dT*kA*kA*kA) [compound 799709]
OUTPUT: 0

INPUT: Which % inhibition of SMAD7 mRNA expression is reported for this substance? 799568 (k[5mC]*kA*kT*dT*dA*dG*dA*dA*dG*d[5mC]*dT*dT*dT*kG*kA*kG; antisense) [compound 799568]
OUTPUT: 49

INPUT: Which % inhibition of SMAD7 mRNA expression is reported for this substance? 799534 (kG*kA*kG*dA*dA*dT*dG*dA*dA*dG*dT*d[5mC]*d[5mC]*kA*kG*kA; antisense) [compound 799534]
OUTPUT: 16

INPUT: Which % inhibition of SMAD7 mRNA expression is reported for this substance? 830131 (antisense k[5mC]*k[5mC]*k[5mC]*dA*d[5mC]*d[5mC]*dT*d[5mC]*d[5mC]*dG*dA*dG*dG*k[5mC]*kA*k[5mC]) [compound 830131]
OUTPUT: 34

INPUT: Which % inhibition of SMAD7 mRNA expression is reported for this substance? 790488 (kT*kT*k[5mC]*d[5mC]*dG*dA*dG*dG*dA*dA*dT*dG*d[5mC]*k[5mC]*kT*kG; antisense) [compound 790488]
OUTPUT: 12

INPUT: Which % inhibition of SMAD7 mRNA expression is reported for this substance? 790736 (kT*k[5mC]*kA*dA*dA*d[5mC]*dT*dT*dT*dG*dA*dA*dG*k[5mC]*k[5mC]*kT; antisense) [compound 790736]
OUTPUT: 32

INPUT: Which % inhibition of SMAD7 mRNA expression is reported for this substance? 829980 (kT*kT*kG*dA*dT*dA*dT*dT*dT*dA*dG*d[5mC]*dT*kG*kT*k[5mC]; antisense) [compound 829980]
OUTPUT: 52
